# assayText: Pharmacokinetics of oral etoricoxib in plasma, CSF and tissue exudate
# Assay type: in vivo, human
# appliedConditions: human, CSF/unbound plasma, oral, 120 mg, CSF/plasma ratio of the unbound fractions (CSF/Pu), at equilibrium (2–24 h); estimated
propertyName: Kp

Incoming: Any idea what Kp was measured for Cc1ccc(-c2ncc(Cl)cc2-c2ccc(S(C)(=O)=O)cc2)cn1 ?
Outgoing: ~0.56

* * *

# assayText: Pharmacokinetics of oral etoricoxib in plasma, CSF and tissue exudate
# Assay type: in vivo, human
# appliedConditions: human, plasma, oral, 120 mg, c max, plasma; n = 5 subgroup; mean (± SD)
propertyName: Cmax (µg/mL)
Please reply with the bare figure in µg/mL and do not write the unit itself.

Incoming: Reported Cmax, molecule Cc1ccc(-c2ncc(Cl)cc2-c2ccc(S(C)(=O)=O)cc2)cn1 [etoricoxib] : ____
Outgoing: 1.44

* * *

# assayText: Pharmacokinetics of oral etoricoxib in plasma, CSF and tissue exudate
# Assay type: in vivo, human
# appliedConditions: human, CSF, oral, 120 mg, c max; n = 5; mean (± SD)
propertyName: Cmax

Incoming: // returns reported Cmax for input Cc1ccc(-c2ncc(Cl)cc2-c2ccc(S(C)(=O)=O)cc2)cn1
Outgoing: ~0.07 µg/mL

* * *

# assayText: Pharmacokinetics of oral etoricoxib in plasma, CSF and tissue exudate
# Assay type: in vivo, human
# appliedConditions: human, CSF/plasma, oral, 120 mg, CSF/plasma conc. ratio at t max, n = 5; mean (± SD); at 8 h
propertyName: Kp at 8 h

Incoming: Entry Cc1ccc(-c2ncc(Cl)cc2-c2ccc(S(C)(=O)=O)cc2)cn1 [etoricoxib] has what Kp at 8 h?
Outgoing: 0.06
